Test system: intestinal flora
Measurement notes: Effects of administration routes on the diversity of intestinal flora in mice (16S rDNA sequencing, OTU)
Type: in vivo
Condition: C57BL/6 mice, feces; oral administration for five consecutive days; D8
Value kind: Relative abundance of OUT (operational taxonomic units) (%)

// Input: CO/N=C(\C(=O)N[C@@H]1C(=O)N2C(C(=O)O)=C(CSc3nc(=O)c(=O)[nH]n3C)CS[C@H]12)c1csc(N)n1 [Ceftriaxone] . Output its Relative abundance of OUT (operational taxonomic units) only.
15.8

Look up Relative abundance of OUT (operational taxonomic units) of CC(C)(O/N=C(\C(=O)N[C@@H]1C(=O)N2C(C(=O)[O-])=C(C[n+]3ccccc3)CS[C@H]12)c1csc(N)n1)C(=O)O [Ceftazidime] and report it.
26.8

1: CC1=C(C(=O)O)N2C(=O)[C@@H](NC(=O)[C@H](N)C3=CCC=CC3)[C@H]2SC1 [Cefradine]
2: C[C@@H](O)[C@H]1C(=O)N2C(C(=O)O)=C(S[C@@H]3CN[C@H](C(=O)Nc4cccc(C(=O)O)c4)C3)[C@H](C)[C@H]12 [Ertapenem]
Which value of Relative abundance of OUT (operational taxonomic units) is numerically greater: that of 1 or that of 2 ? When you have decided, please share the label of that item.
1
(1: 25.8%, 2: 15.8%)

* * *

Test system: intestinal flora
Measurement notes: Effects of administration routes on the diversity of intestinal flora in mice (16S rDNA sequencing, OTU)
Format: in vivo
Condition: C57BL/6 mice, feces; oral administration for five consecutive days; D10
Value kind: Relative abundance of OUT (operational taxonomic units) (%)

Report measured Relative abundance of OUT (operational taxonomic units); entry is CO/N=C(\C(=O)N[C@@H]1C(=O)N2C(C(=O)O)=C(CSc3nc(=O)c(=O)[nH]n3C)CS[C@H]12)c1csc(N)n1
23.0

Name the recorded Relative abundance of OUT (operational taxonomic units) of the compound listed here: CC1=C(C(=O)O)N2C(=O)[C@@H](NC(=O)[C@H](N)C3=CCC=CC3)[C@H]2SC1
28.6

Input C[C@@H](O)[C@H]1C(=O)N2C(C(=O)O)=C(S[C@@H]3CN[C@H](C(=O)Nc4cccc(C(=O)O)c4)C3)[C@H](C)[C@H]12 , output reported Relative abundance of OUT (operational taxonomic units).
20.9

Indicate the recorded Relative abundance of OUT (operational taxonomic units) value for this compound: CC(C)(O/N=C(\C(=O)N[C@@H]1C(=O)N2C(C(=O)[O-])=C(C[n+]3ccccc3)CS[C@H]12)c1csc(N)n1)C(=O)O
29.6

* * *

System: intestinal flora
Measurement notes: Effects of administration routes on the diversity of intestinal flora in mice (16S rDNA sequencing, OTU)
Assay type: in vivo
Condition: C57BL/6 mice, feces; in combination with recombinant human HAase for subcutaneous administration, five consecutive days; D1 after administration
Value kind: Relative abundance of OUT (operational taxonomic units) (%)

Determine from records and report Relative abundance of OUT (operational taxonomic units) for C[C@@H](O)[C@H]1C(=O)N2C(C(=O)O)=C(S[C@@H]3CN[C@H](C(=O)Nc4cccc(C(=O)O)c4)C3)[C@H](C)[C@H]12
30.5

Quick one: give measured Relative abundance of OUT (operational taxonomic units) for CC(C)(O/N=C(\C(=O)N[C@@H]1C(=O)N2C(C(=O)[O-])=C(C[n+]3ccccc3)CS[C@H]12)c1csc(N)n1)C(=O)O
35.5

Given the compound CC1=C(C(=O)O)N2C(=O)[C@@H](NC(=O)[C@H](N)C3=CCC=CC3)[C@H]2SC1 , write its reported Relative abundance of OUT (operational taxonomic units).
35.5

Provide only the value of recorded Relative abundance of OUT (operational taxonomic units) for CO/N=C(\C(=O)N[C@@H]1C(=O)N2C(C(=O)O)=C(CSc3nc(=O)c(=O)[nH]n3C)CS[C@H]12)c1csc(N)n1
31.5
